Target: Stabilised Pfs48/45 D3 (D3.mAgE1), PNGase F-deglycosylated, with C-terminal hexa-histidine tag and AviTag (P. falciparum)
Test: BLI
Overview of recorded koff for various binders
Enter the number, and then the unit.

Task: Return reported koff. Input binder: Anti-Pfs48/45 monoclonal antibody TB31F (humanised version of 85RF45.1) (antibody, V domains shown) VH: EVQLVQSGGGLVQPGGSLRLSCAASGFTFNNYWMSWVRQAPGKGLEWVSSISNIGGTIYYPDSVKGRFTISRDNSKNTLYLQMNSLRAEDTAVYYCTRDLRMSDYFDYWGQGTMVTVSS VL: NFMLTQPHSVSESPGKTVTISCTRSTGNIGSNYVSWYQQRPGSSPTTVIYRDDQRPSGVPDRFSGSIDRSSNSASLTISGLKTEDEADYYCHSYSTGMYIFGGGTKLTVL
Result: 0.00239 s⁻¹

Task: Return reported koff. Input binder: A4-Fc (anti-Pfs48/45 nanobody A4 fused to hinge and Fc of human IgG1) (Fc fusion) QVQLQESGGGLVQPGGSLRLSCAASGFTFSSYWMYWVRETPGKGLEWVSVINPGGRITIYTDSVKGRFTVSRDNAKNTVYLQMNSLKPEDTAVYFCAADLEYRAQLYAYWGQGTQVTVSS
Result: 0.00851 s⁻¹

Task: Return reported koff. Input binder: C3-Fc (anti-Pfs48/45 nanobody C3 fused to hinge and Fc of human IgG1) (Fc fusion) QVQLQESGGGSVQPGGSLRLSCAASGFTFSSYWMYWVRQAPEKGLEWVSVINPGGRITIYTDSVKGRFAVSRDNAKNTVYLQLNSLKPEDTAVYYCAASRTYSNSYSPSDYDYWGQGTQVTVSS
Result: 0.0106 s⁻¹

Continuing:
Task: Return reported koff. Input binder: B2-Fc (anti-Pfs48/45 nanobody B2 fused to hinge and Fc of human IgG1) (Fc fusion) QVQLQESGGGLVQAGGSLRLSCAASGRTFSKYAMAWFRQAPGKEREFVAAISGAGGATVHAAPVKGRFTISRDNAKNMGYLQMNSLKPEDTAVYYCAQTGSTGWPAGRTYTYDYWGQGTQVTVSS
Result: 0.00476 s⁻¹

This collection of values is drawn from paper PMC12858062.
